Where these numbers come from: paper PMC9352680

For each record, write down the corresponding log10(Kd).
Target: T1, PUF4 RNA-binding domain (Saccharomyces cerevisiae, UniProt P25339 537-888)
T1 sequence: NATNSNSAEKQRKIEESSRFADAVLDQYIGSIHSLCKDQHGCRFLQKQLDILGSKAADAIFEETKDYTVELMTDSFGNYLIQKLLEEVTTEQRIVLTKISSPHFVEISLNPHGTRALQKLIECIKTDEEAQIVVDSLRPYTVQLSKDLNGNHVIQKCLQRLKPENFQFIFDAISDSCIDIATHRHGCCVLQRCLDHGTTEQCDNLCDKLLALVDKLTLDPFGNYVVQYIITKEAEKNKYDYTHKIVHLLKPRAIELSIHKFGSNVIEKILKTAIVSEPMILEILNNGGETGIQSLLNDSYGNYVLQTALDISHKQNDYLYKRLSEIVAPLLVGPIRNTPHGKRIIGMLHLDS
Test: Mg; RNA-MaP; 20 mM Na-HEPES pH 7.4, 30 mM KOAc, 0.75 mM MgCl2, 0.1% Tween-20, 5% glycerol, 0.1 mg/mL BSA, 2 mM DTT; 25 C; 0.0125-409.6 nM protein
Details: tags: N-His6-TEV cleaved; C-SNAP kept, Cy3B-labelled; label: tethered on chip by stalled RNA polymerase
Units before log transform: nM; reported quantity: Kd; transform: log10.

Examples from the recorded data:
{"BINDER": "Id_ii_S4_P5E.2_K5.1_C5.2_[C-2T]_[T-1G]_H5.1_A5.1_F5.1_T5.2_[T11G]_[A12T] (ssRNA) RNA: UUUGACAACUGAUCGUUCUUUCUUGUGUAUUAUUAGUUUCUUUCUCGAUCAGUUGUCUUU", "REPORTED_VALUE": 0.18}
{"BINDER": "UCUCUUUGUAACCAUGUCUCUU (ssRNA) [Ic_S1_P5E.1_K5.1_C5.1_H5.1_A5.1_[T5A]_[T6C]_[A7C]_F5.1_[T8A]_[A10G]_T5.1]", "REPORTED_VALUE": 2.68}
{"BINDER": "Ie_S4_P3E.2_K3.1_C3.2_H3.1_[+3TCTCT]_A3.1_F3.1_T3.2 (ssRNA) RNA: UUUGACAACUGAUCGUUCUUUCUCUUGUUCUCUAUAUAUAUUCUUUCUCGAUCAGUUGUCUUU", "REPORTED_VALUE": 1.07}

Provide the reported log10(Kd) of each entry below, same order.
1. UCUCUUAUUAUAUAUAUCUCUCUU (ssRNA) [Id_ii_S1_P3E.3_K3.2_C3.2_[C-2A]_H3.2_A3.1_F3.1_T3.2_[A10C]]
2. Ic_S4_P4E.1_K4.1_C4.1_H4.1_A4.1_[T5A]_[T7A]_F4.1_T4.1 (ssRNA) RNA: UUUGACAACUGAUCGUUCUUUCUUGUAAAAUAUUCUUUCUCGAUCAGUUGUCUUU
3. UCUCUUUGUAAAUUCUUCUCUU (ssRNA) [Ic_S1_P5E.1_K5.1_C5.1_H5.1_A5.1_[T5A]_[T6A]_[A7T]_F5.1_[T9C]_[A10T]_T5.1]
4. Ie_S2_P5E.1_K5.1_C5.1_H5.1_A5.1_[+7CTCT]_F5.1_T5.1 (ssRNA) RNA: UUUGAUUAAUAUGAUAUCGUUCUUUCUUGUAUUACUCUUUAUUCUUUCUCGAUAUCAUAUUAAUCUUU

Result string:
1. 3.00
2. 0.52
3. 1.30
4. 1.72
